Entry source: patent US20230174596A1

Molecular target: LRP6 E1E2 protein (human) (UniProt O75581)
Sequence (O75581 20-630 limits assumed): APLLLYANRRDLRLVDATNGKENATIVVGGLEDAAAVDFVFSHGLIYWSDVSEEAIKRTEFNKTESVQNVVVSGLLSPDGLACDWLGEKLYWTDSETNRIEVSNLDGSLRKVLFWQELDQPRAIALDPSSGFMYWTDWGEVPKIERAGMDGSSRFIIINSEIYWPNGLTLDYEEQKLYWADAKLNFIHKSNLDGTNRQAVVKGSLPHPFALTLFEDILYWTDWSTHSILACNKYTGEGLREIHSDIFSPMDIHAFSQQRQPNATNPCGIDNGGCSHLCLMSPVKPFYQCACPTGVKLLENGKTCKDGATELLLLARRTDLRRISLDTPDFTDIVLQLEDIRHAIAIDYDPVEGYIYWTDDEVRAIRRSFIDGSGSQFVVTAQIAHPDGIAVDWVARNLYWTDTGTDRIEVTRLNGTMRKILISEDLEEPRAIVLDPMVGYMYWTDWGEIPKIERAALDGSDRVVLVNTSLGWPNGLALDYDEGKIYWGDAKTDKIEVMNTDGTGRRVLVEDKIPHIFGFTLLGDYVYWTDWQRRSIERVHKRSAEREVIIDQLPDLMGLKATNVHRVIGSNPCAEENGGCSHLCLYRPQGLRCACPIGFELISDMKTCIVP
Experiment: spot phage ELISA
// assign Condition met if ELISA falls strictly below 3, else Condition not met (ties count as Condition not met)

                                      binder     classification
 0  GCVNRVRGCKQDSDCLAGCVCSGGRDCG (designed binder) [LRP6_CKP2]  Condition not met
 1  GCNRIRNSCKQDSDCLAGCVCGRGDYCG (designed binder) [LRP6_CKP15]      Condition met
 2  GCVSNRVNKGCKQDSDCLAGCVCGPNGFCG (designed binder) [LRP6_CKP7]  Condition not met
 3  GCVNSVKRCKQDSDCLAGCVCSRGVNCG (designed binder) [LRP6_CKP13]  Condition not met
 4  GCRANRVSGRCKQDSDCLAGCVCGPNGFCG (designed binder) [LRP6_CKP18]      Condition met
 5  GCSNRVKVRACKQDSDCLAGCVCGPNGFCG (designed binder) [LRP6_CKP19]  Condition not met
 6  GCRGNIIKCKQDSDCLAGCVCNESRGCG (designed binder) [LRP6_CKP8]  Condition not met
 7  GCENRTKGCKQDSDCLAGCVCGFRGTCG (designed binder) [LRP6_CKP20]  Condition not met
 8  GCSRNSIKCKQDSDCLAGCVCASGSSCG (designed binder) [LRP6_CKP16]  Condition not met
 9  GCRSNRIRCKQDSDCLAGCVCYGHGDCG (designed binder) [LRP6_CKP11]      Condition met
10  GCRSNKLREARGCKQDSDCLAGCVCGSRQDCG (designed binder) [LRP6_CKP12]      Condition met
